- Tested on: UO-31 renal
- ASSAY TEXT: NCI tumour cell line growth inhibition, 48 h
MEASURE NAME: log10 of TGI (log10 of the value in µM)

{"columns": ["COMPOUND", "MEASURED VALUE"],
 "data": [
  ["C=C1CCC2[C@@H](CCC3[C@]2(C)CCC[C@]3(C)C(=O)OC)C1CC=O (stereo partly specified)", 1.46],
  ["COC(=O)c1c(C)n([O-])c2cc(Cl)c(Cl)cc2[n+]1=O", 1.67],
  ["Oc1c(I)cc(I)c2cccnc12", 1.33],
  ["O=c1c2cc(S(=O)(=O)O)ccc2nc(COc2ccc(Oc3ccc(Cl)cc3Cl)cc2)n1-c1ccc(Oc2ccc(Cl)cc2)cc1Cl", 1.43],
  ["CN(CCNCc1ccccn1)CCNCc1ccccn1", 0.59]
]}
